The origin of these recorded values is paper PMC6277434.

# experimental-system: HMGCR (TM1-8)-GFP (Cricetulus griseus)
# Sequence (P00347 1-346): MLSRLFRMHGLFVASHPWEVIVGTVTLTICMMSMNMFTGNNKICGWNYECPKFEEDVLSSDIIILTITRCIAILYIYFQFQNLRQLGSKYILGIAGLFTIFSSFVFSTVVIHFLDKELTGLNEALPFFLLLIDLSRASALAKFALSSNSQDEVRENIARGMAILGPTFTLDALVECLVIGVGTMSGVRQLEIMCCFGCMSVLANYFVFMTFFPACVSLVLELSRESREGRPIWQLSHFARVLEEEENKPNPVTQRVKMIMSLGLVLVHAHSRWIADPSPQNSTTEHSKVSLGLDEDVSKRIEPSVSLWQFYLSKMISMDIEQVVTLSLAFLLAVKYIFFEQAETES
# measurement-protocol: HMGCR (TM1-8)-GFP fluorescent assay (high-content imaging) in CHG cells
# protocol-conditions: read-out: Mean (HMGCR (TM1-8)-GFP signal relative to 0 μM = 100)
remaining activity at 2.5 µM: recorded values
Lab note: write values as number then unit, every time.

In the examples that follow, each entry is paired with its recorded remaining activity at 2.5 µM.
molecule	measured-result
C[C@H](CCCO)C1CCC2C3C(CC[C@@]21C)[C@@]1(C)CC[C@H](O)C(C)(C)C1=C[C@@H]3O (some centres unmarked)	82.2%
C[C@H](CCCC(=O)O)C1CCC2C3C(CC[C@@]21C)[C@@]1(C)CC[C@H](O)C(C)(C)C1=C[C@@H]3O (some centres unmarked)	92.6%
C[C@H](CCCC(C)(C)O)C1CCC2C3C(CC[C@@]21C)[C@@]1(C)CC[C@H](O)C(C)(C)C1=C[C@@H]3O (some centres unmarked)	23.5%
C[C@H](CCCCCC(C)(C)O)C1CCC2C3C(CC[C@@]21C)[C@@]1(C)CC[C@H](O)C(C)(C)C1=C[C@@H]3O (some centres unmarked)	20.4%
CCC(O)(CC)CC[C@@H](C)C1CCC2C3C(CC[C@@]21C)[C@@]1(C)CC[C@H](O)C(C)(C)C1=C[C@@H]3O (some centres unmarked)	36.2%

Kindly review the next molecule as well.
IN: Requested field: remaining activity at 2.5 µM. Item: C[C@H](CCC(=O)O)C1CCC2C3C(CC[C@@]21C)[C@@]1(C)CC[C@H](O)C(C)(C)C1=C[C@@H]3O (some centres unmarked)
OUT: 103%
